Target: CDK6/cyclin D1 (Homo sapiens, UniProt Q00534)
Sequence (Q00534 whole entry, species assumed): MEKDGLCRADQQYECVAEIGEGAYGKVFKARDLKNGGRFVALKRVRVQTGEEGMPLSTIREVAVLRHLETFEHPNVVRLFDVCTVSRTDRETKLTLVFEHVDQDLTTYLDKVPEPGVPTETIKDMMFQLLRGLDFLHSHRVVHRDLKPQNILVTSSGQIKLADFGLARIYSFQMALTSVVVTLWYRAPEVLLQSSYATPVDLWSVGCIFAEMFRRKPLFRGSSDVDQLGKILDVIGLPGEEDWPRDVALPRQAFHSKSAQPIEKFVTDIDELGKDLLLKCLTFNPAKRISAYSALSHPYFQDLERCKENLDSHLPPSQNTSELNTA
Sequence (P24385 whole entry partner, species assumed): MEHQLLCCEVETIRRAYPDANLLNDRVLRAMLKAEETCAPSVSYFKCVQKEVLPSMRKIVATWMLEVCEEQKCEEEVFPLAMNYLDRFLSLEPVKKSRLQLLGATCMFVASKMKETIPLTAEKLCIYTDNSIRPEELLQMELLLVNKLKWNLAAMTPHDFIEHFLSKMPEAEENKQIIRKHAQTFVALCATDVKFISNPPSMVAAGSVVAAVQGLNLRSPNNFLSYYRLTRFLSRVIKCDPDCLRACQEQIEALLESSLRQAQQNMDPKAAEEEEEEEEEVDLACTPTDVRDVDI
Test: Biochemical kinase inhibition test, CDK6/cyclin D1 (similar method)
Details: three-fold serial dilution from 10 μM; 10 μM ATP; read-out: CDK6/D1 (nM), enzyme inhibitory activity IC50
Kindly state IC50 for each of the entries shown.

Using the record for "Cc1cc(Nc2ncc3ccc4cnn(C(C)C)c4c3n2)ncc1N1CCN(C)CC1" , report its IC50.
10 to 20 nM

# input compound: "Cc1nc(Nc2ncc3ccc4cnn(C(C)C)c4c3n2)ccc1N1CCN(C)CC1" ; wanted: its IC50
< 1 nM

GET /values?readout=IC50&item= "Cc1cc2cnc(Nc3ccc(N4CCN(C)CC4)cn3)nc2c2c1cnn2C(C)C"
1 to 5 nM

// IC50 lookup, key: "CCn1ncc2ccc3cnc(Nc4cc(C)c(N5CCOCC5)cn4)nc3c21"
10 to 20 nM

Which IC50 value is on record for "CC(C)n1ncc2ccc3cnc(Nc4ccc(N5CCOCC5)cn4)nc3c21" ?
1 to 5 nM

Could you tell me which IC50 is on file for "Cc1nc(Nc2ncc3ccc4cnn(C(C)C)c4c3n2)ccc1N1CCOCC1" ?
< 1 nM

Dear colleague, I am looking for the recorded IC50 of the following compound: "CC(C)n1ncc2c(C#N)cc3cnc(Nc4ccc(N5CCNCC5)cn4)nc3c21.Cl"
1 to 5 nM

Recorded IC50 for "Cc1cc2cnc(Nc3cc(F)c(N4CCNCC4)cn3)nc2c2c1cnn2C(C)C.Cl" , please?
10 to 20 nM
